// reported pIC50 for each item listed
test-target: Mitogen-activated protein kinase 10 (Homo sapiens)
assay-remarks: Inhibition of JNK3 (unknown origin) using ATF2 as substrate incubated for 40 mins in presence of [gamma33P]ATP by scintillation counting analysis
Note: pIC50 values are expressed as the negative base-10 logarithm of concentration in M.

Known pIC50 results, listed for orientation:
• CCOC(=O)C1Cc2nc(-c3ccc4c(c3)OCO4)n(-c3ccnc(N[C@@H]4CCCN(C(=O)C5CC5)C4)n3)c2C1 (stereo not given in full) = 8.92
• NC(=O)C1Cc2nc(-c3ccc4c(c3)CCO4)n(-c3ccnc(N[C@@H]4CCN(C(=O)C5CC5)C4)n3)c2C1 (stereo not given in full) = 7.20
• CCOC(=O)C1Cc2nc(-c3ccc(Cl)c(Cl)c3)n(-c3ccnc(N[C@@H]4CCN(C(=O)C5CC5)C4)n3)c2C1 (stereo not given in full) = 8.36
• NC(=O)C1Cc2nc(-c3ccc4c(c3)CCO4)n(-c3ccnc(N[C@H]4CCN(C(=O)C5CC5)C4)n3)c2C1 (stereo not given in full) = 7.06
• NC(=O)C1Cc2nc(-c3ccc4c(c3)CCO4)n(-c3ccnc(N[C@H]4CCCN(C(=O)C5CC5)C4)n3)c2C1 (stereo not given in full) = 8.04
• CNC(=O)C1Cc2nc(-c3ccc(F)c(C(F)(F)F)c3)n(-c3ccnc(N[C@@H]4CCN(C(=O)C5CC5)C4)n3)c2C1 (stereo not given in full) = 6.52

Per the record, CCOC(=O)C1Cc2nc(-c3ccc4ccccc4c3)n(-c3ccnc(N[C@H]4CCN(C(=O)C5CC5)C4)n3)c2C1 (stereo not given in full) has pIC50 of 7.63

Reported pIC50 ( NC(=O)C1Cc2nc(-c3ccc(F)c(C(F)(F)F)c3)n(-c3ccnc(N[C@H]4CCCN(C(=O)C5CC5)C4)n3)c2C1 (stereo not given in full) ) = 8.19

// CCOC(=O)C1Cc2nc(-c3ccc(Cl)c(Cl)c3)n(-c3ccnc(N[C@H]4CCCN(C(=O)C5CC5)C4)n3)c2C1 (stereo not given in full) : pIC50 value = 8.95

Value of measured pIC50 for the entry CNC(=O)C1Cc2nc(-c3ccc(Cl)c(Cl)c3)n(-c3ccnc(N[C@H]4CCN(C(=O)C5CC5)C4)n3)c2C1 (stereo not given in full) : 7.99

Lab book: pIC50 of CNC(=O)C1Cc2nc(-c3ccc4ccccc4c3)n(-c3ccnc(N[C@H]4CCCN(C(=O)C5CC5)C4)n3)c2C1 (stereo not given in full) noted as 9.25

---

test-target: Mitogen-activated protein kinase 8 (Homo sapiens, UniProt P45983)
Sequence (P45983 whole entry): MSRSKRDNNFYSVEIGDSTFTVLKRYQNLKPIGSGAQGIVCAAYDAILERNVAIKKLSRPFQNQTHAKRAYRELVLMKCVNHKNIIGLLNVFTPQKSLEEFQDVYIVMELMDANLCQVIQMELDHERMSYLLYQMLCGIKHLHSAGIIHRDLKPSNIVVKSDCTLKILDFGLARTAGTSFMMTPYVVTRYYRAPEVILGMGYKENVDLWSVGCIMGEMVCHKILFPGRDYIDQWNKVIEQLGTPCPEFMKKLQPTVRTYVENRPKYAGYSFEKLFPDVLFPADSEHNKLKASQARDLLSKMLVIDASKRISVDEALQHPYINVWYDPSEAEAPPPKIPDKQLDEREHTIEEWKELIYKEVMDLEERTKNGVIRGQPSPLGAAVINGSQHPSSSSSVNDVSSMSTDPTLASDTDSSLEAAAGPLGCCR
assay-remarks: Inhibition of JNK1 (unknown origin) incubated for 20 mins in presence of 33P-ATP
Here the recorded pIC50 is given for each entry.
// pIC50 is dimensionless: -log10 of concentration (M)

Examples from the recorded data:
- CCOC(=O)C1Cc2nc(-c3ccc4ccccc4c3)n(-c3ccnc(N[C@@H]4CCCN(C(=O)C5CC5)C4)n3)c2C1 (some centres undefined): 7.25
- NC(=O)C1Cc2nc(-c3ccc(Cl)c(Cl)c3)n(-c3ccnc(N[C@@H]4CCCN(C(=O)C5CC5)C4)n3)c2C1 (some centres undefined): 6.80
- CNC(=O)C1Cc2nc(-c3ccc(Cl)c(Cl)c3)n(-c3ccnc(N[C@H]4CCCN(C(=O)C5CC5)C4)n3)c2C1 (some centres undefined): 7.06
- CNC(=O)C1Cc2nc(-c3ccc4ccccc4c3)n(-c3ccnc(N[C@H]4CCCN(C(=O)C5CC5)C4)n3)c2C1 (some centres undefined): 7.84
- CCOC(=O)C1Cc2nc(-c3ccc(Cl)c(Cl)c3)n(-c3ccnc(N[C@@H]4CCCN(C(=O)C5CC5)C4)n3)c2C1 (some centres undefined): 7.08

Recorded result, CNC(=O)C1Cc2nc(-c3ccc4ccccc4c3)n(-c3ccnc(N[C@@H]4CCCN(C(=O)C5CC5)C4)n3)c2C1 (some centres undefined) , pIC50: 7.12

pIC50 measured on CCOC(=O)C1Cc2nc(-c3ccc4ccccc4c3)n(-c3ccnc(N[C@H]4CCCN(C(=O)C5CC5)C4)n3)c2C1 (some centres undefined) = 7.49

Entry under test: CCOC(=O)C1Cc2nc(-c3ccc(Cl)c(Cl)c3)n(-c3ccnc(N[C@H]4CCCN(C(=O)C5CC5)C4)n3)c2C1 (some centres undefined) . Its pIC50 was 6.80

// pIC50 lookup, compound = NC(=O)C1Cc2nc(-c3ccc(Cl)c(Cl)c3)n(-c3ccnc(N[C@H]4CCCN(C(=O)C5CC5)C4)n3)c2C1 (some centres undefined) , result: 7.08

---

test-target: Mitogen-activated protein kinase 10 (Homo sapiens)
assay-remarks: Inhibition of JNK3 (unknown origin) using ATF2 as substrate incubated for 40 mins in presence of [gamma33P]ATP by scintillation counting analysis
pIC50: −log10 of the molar value.
Label t when pIC50 is at or above 8; anything below gets f.

Here are 5 compounds together with their reported answers.
- CCOC(=O)C1Cc2nc(-c3ccc4c(c3)CCO4)n(-c3ccnc(N[C@H]4CCCN(C(=O)C5CC5)C4)n3)c2C1 (some centres not stated): f
- CCOC(=O)C1Cc2nc(-c3ccc4ccccc4c3)n(-c3ccnc(N[C@@H]4CCCN(C(=O)C5CC5)C4)n3)c2C1 (some centres not stated): t
- CNC(=O)C1Cc2nc(-c3ccc4c(c3)OCO4)n(-c3ccnc(N[C@H]4CCN(C(=O)C5CC5)C4)n3)c2C1 (some centres not stated): f
- NC(=O)C1Cc2nc(-c3ccc(F)c(C(F)(F)F)c3)n(-c3ccnc(N[C@@H]4CCN(C(=O)C5CC5)C4)n3)c2C1 (some centres not stated): f
- NC(=O)C1Cc2nc(-c3ccc(F)c(C(F)(F)F)c3)n(-c3ccnc(N[C@@H]4CCCN(C(=O)C5CC5)C4)n3)c2C1 (some centres not stated): f

For the next question, use this compound.
// inclusive: pIC50 at least 8? input: NC(=O)C1Cc2nc(-c3ccc4c(c3)OCO4)n(-c3ccnc(N[C@@H]4CCCN(C(=O)C5CC5)C4)n3)c2C1 (some centres not stated)
f

---

The following compounds are listed with their measured pIC50 values.
test-target: Mitogen-activated protein kinase 14 (Homo sapiens, UniProt Q16539)
Sequence (Q16539 whole entry): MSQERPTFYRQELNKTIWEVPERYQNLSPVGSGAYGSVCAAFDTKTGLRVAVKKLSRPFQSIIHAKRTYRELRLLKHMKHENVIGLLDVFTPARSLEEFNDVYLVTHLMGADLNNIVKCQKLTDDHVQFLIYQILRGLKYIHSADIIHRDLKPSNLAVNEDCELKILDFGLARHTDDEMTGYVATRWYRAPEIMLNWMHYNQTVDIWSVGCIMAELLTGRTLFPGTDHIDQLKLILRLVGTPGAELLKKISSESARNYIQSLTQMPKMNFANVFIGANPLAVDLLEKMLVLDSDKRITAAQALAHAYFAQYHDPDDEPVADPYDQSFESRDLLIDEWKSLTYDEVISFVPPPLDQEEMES
assay-remarks: Inhibition of p38alpha (unknown origin) incubated for 20 mins in presence of 33P-ATP
// pIC50: -log10(molar conc.)

Past entries and their recorded results:
* CCOC(=O)C1Cc2nc(-c3ccc4ccccc4c3)n(-c3ccnc(N[C@@H]4CCCN(C(=O)C5CC5)C4)n3)c2C1 (some centres undefined) | 7.07
* CNC(=O)C1Cc2nc(-c3ccc(Cl)c(Cl)c3)n(-c3ccnc(N[C@H]4CCCN(C(=O)C5CC5)C4)n3)c2C1 (some centres undefined) | 6.27
* CNC(=O)C1Cc2nc(-c3ccc4ccccc4c3)n(-c3ccnc(N[C@H]4CCCN(C(=O)C5CC5)C4)n3)c2C1 (some centres undefined) | 6.12
* CCOC(=O)C1Cc2nc(-c3ccc4ccccc4c3)n(-c3ccnc(N[C@H]4CCCN(C(=O)C5CC5)C4)n3)c2C1 (some centres undefined) | 6.54

compound NC(=O)C1Cc2nc(-c3ccc(Cl)c(Cl)c3)n(-c3ccnc(N[C@H]4CCCN(C(=O)C5CC5)C4)n3)c2C1 (some centres undefined) , pIC50 observed: 6.67

// field: pIC50; key: NC(=O)C1Cc2nc(-c3ccc(Cl)c(Cl)c3)n(-c3ccnc(N[C@@H]4CCCN(C(=O)C5CC5)C4)n3)c2C1 (some centres undefined) ; value = 7.15

pIC50 for CCOC(=O)C1Cc2nc(-c3ccc(Cl)c(Cl)c3)n(-c3ccnc(N[C@H]4CCCN(C(=O)C5CC5)C4)n3)c2C1 (some centres undefined) is 6.54

Looking up CNC(=O)C1Cc2nc(-c3ccc4ccccc4c3)n(-c3ccnc(N[C@@H]4CCCN(C(=O)C5CC5)C4)n3)c2C1 (some centres undefined) , I found its pIC50 recorded as 7.43

For reference, reported pIC50 for CCOC(=O)C1Cc2nc(-c3ccc(Cl)c(Cl)c3)n(-c3ccnc(N[C@@H]4CCCN(C(=O)C5CC5)C4)n3)c2C1 (some centres undefined) stands at 7.27

---

test-target: Mitogen-activated protein kinase 10 (Homo sapiens, UniProt P53779)
Sequence (P53779 whole entry): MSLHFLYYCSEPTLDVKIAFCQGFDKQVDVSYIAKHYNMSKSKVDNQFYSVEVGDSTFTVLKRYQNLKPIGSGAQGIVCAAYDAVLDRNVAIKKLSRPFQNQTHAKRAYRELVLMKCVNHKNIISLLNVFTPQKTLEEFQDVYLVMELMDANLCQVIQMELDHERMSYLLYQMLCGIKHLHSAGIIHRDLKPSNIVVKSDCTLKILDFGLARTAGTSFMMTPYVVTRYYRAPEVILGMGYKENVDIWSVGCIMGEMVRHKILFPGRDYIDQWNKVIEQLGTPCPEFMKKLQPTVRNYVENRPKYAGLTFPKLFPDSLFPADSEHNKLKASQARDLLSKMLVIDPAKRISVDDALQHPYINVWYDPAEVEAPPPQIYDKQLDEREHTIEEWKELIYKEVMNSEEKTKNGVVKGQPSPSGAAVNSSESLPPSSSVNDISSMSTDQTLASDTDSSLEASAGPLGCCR
assay-remarks: Inhibition of JNK3 (unknown origin) using ATF2 as substrate incubated for 40 mins in presence of [gamma33P]ATP by scintillation counting analysis
Binned IC50; ranges: range 1 = under 9 nM, range 2 = from 9 nM up to 70 nM, range 3 = 70 nM and over

See these solved cases before continuing.
* CCOC(=O)C1Cc2nc(-c3ccc(F)c(C(F)(F)F)c3)n(-c3ccnc(N[C@@H]4CCCN(C(=O)C5CC5)C4)n3)c2C1 (stereo not given in full) | range 2
* CCOC(=O)C1Cc2nc(-c3ccc4c(c3)CCO4)n(-c3ccnc(N[C@H]4CCN(C(=O)C5CC5)C4)n3)c2C1 (stereo not given in full) | range 3
* CNC(=O)C1Cc2nc(-c3ccc4ccccc4c3)n(-c3ccnc(N[C@@H]4CCCN(C(=O)C5CC5)C4)n3)c2C1 (stereo not given in full) | range 1
* CCOC(=O)C1Cc2nc(-c3ccc4c(c3)OCO4)n(-c3ccnc(N[C@@H]4CCN(C(=O)C5CC5)C4)n3)c2C1 (stereo not given in full) | range 2
* NC(=O)C1Cc2nc(-c3ccc4ccccc4c3)n(-c3ccnc(N[C@@H]4CCCN(C(=O)C5CC5)C4)n3)c2C1 (stereo not given in full) | range 1
* CCOC(=O)C1Cc2nc(-c3ccc(F)c(C(F)(F)F)c3)n(-c3ccnc(N[C@H]4CCN(C(=O)C5CC5)C4)n3)c2C1 (stereo not given in full) | range 3

Band of NC(=O)C1Cc2nc(-c3ccc4ccccc4c3)n(-c3ccnc(N[C@H]4CCN(C(=O)C5CC5)C4)n3)c2C1 (stereo not given in full) ?
range 2

Band for the recorded IC50 of CCOC(=O)C1Cc2nc(-c3ccc4ccccc4c3)n(-c3ccnc(N[C@H]4CCCN(C(=O)C5CC5)C4)n3)c2C1 (stereo not given in full) ?
range 1

Into which category would you place CCOC(=O)C1Cc2nc(-c3ccc4c(c3)OCO4)n(-c3ccnc(N[C@H]4CCCN(C(=O)C5CC5)C4)n3)c2C1 (stereo not given in full) ?
range 2

Form field 'band' for NC(=O)C1Cc2nc(-c3ccc(Cl)c(Cl)c3)n(-c3ccnc(N[C@@H]4CCN(C(=O)C5CC5)C4)n3)c2C1 (stereo not given in full)
range 2

Class for NC(=O)C1Cc2nc(-c3ccc4c(c3)OCO4)n(-c3ccnc(N[C@H]4CCN(C(=O)C5CC5)C4)n3)c2C1 (stereo not given in full) ?
range 3

Please report the category associated with CNC(=O)C1Cc2nc(-c3ccc(Cl)c(Cl)c3)n(-c3ccnc(N[C@@H]4CCCN(C(=O)C5CC5)C4)n3)c2C1 (stereo not given in full) , nothing else.
range 1

Hello team, could you let me know which band the following compound falls into: CNC(=O)C1Cc2nc(-c3ccc(Cl)c(Cl)c3)n(-c3ccnc(N[C@H]4CCCN(C(=O)C5CC5)C4)n3)c2C1 (stereo not given in full)
range 1

Where would NC(=O)C1Cc2nc(-c3ccc4ccccc4c3)n(-c3ccnc(N[C@H]4CCCN(C(=O)C5CC5)C4)n3)c2C1 (stereo not given in full) land among the classes by reported IC50?
range 1

State the band of NC(=O)C1Cc2nc(-c3ccc(F)c(C(F)(F)F)c3)n(-c3ccnc(N[C@H]4CCN(C(=O)C5CC5)C4)n3)c2C1 (stereo not given in full)
range 3

Any idea which band CCOC(=O)C1Cc2nc(-c3ccc(Cl)c(Cl)c3)n(-c3ccnc(N[C@H]4CCN(C(=O)C5CC5)C4)n3)c2C1 (stereo not given in full) is in?
range 2

Given CCOC(=O)C1Cc2nc(-c3ccc4c(c3)CCO4)n(-c3ccnc(N[C@@H]4CCCN(C(=O)C5CC5)C4)n3)c2C1 (stereo not given in full) , name the class its IC50 places it in.
range 2

Category of NC(=O)C1Cc2nc(-c3ccc4c(c3)OCO4)n(-c3ccnc(N[C@@H]4CCN(C(=O)C5CC5)C4)n3)c2C1 (stereo not given in full) , please.
range 3

Textbook exercise: identify the category of the compound given here, CNC(=O)C1Cc2nc(-c3ccc(F)c(C(F)(F)F)c3)n(-c3ccnc(N[C@@H]4CCCN(C(=O)C5CC5)C4)n3)c2C1 (stereo not given in full) , according to its measured value.
range 3
